# System tested: T1, human IL-6 (human, UniProt P05231 30-212)
# T1 construct: IL-6 flowed over captured antibodies
# T1 sequence (P05231 30-212 limits assumed): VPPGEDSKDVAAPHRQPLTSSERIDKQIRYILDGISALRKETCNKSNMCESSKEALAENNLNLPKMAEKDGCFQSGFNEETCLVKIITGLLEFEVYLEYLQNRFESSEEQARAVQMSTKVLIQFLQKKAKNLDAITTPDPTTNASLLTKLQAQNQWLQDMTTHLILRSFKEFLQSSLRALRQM
# Experiment summary: SPR Biacore, supernatant Ab on Protein A chip, 37 C
Readout label: kon
# answer = value followed by unit

Q: For the binder anti-IL-6 antibody, heavy chain T63Y, G66D / light chain M32L, M50D, N52S, M88Q (antibody, IgG1, V domains shown, Full IgG1 (Expi293); VL = variant III) VH: EVQLVESGGGLVQPGGSLRLSCAASGFTFSPFAMSWVRQAPGKGLEWVAKISPGGSWTYYSDYVTDRFTFSLDTSKSTAYLQMNSLRAEDTAVYYCARQLWGYYALDIWGQGTLVTVSS VL: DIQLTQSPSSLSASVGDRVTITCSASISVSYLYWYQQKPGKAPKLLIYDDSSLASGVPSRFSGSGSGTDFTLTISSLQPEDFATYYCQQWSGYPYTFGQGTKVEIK , report kon.
Result: 1.91e+06 M⁻¹ s⁻¹

Q: For the binder anti-IL-6 antibody, heavy chain T65E, G66D / light chain M32L, M50D, N52S, M88Q (antibody, IgG1, V domains shown, Full IgG1 (Expi293); VL = variant III) VH: EVQLVESGGGLVQPGGSLRLSCAASGFTFSPFAMSWVRQAPGKGLEWVAKISPGGSWTYYSDTVEDRFTFSLDTSKSTAYLQMNSLRAEDTAVYYCARQLWGYYALDIWGQGTLVTVSS VL: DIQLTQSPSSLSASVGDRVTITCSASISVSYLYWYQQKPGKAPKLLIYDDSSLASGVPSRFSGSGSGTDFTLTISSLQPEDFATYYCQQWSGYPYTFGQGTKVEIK , report kon.
Result: 1.7e+06 M⁻¹ s⁻¹

Q: For the binder anti-IL-6 antibody, heavy chain S35Q, G66D / light chain M32L, M50D, N52S, M88Q (antibody, IgG1, V domains shown, Full IgG1 (Expi293); VL = variant III) VH: EVQLVESGGGLVQPGGSLRLSCAASGFTFSPFAMQWVRQAPGKGLEWVAKISPGGSWTYYSDTVTDRFTFSLDTSKSTAYLQMNSLRAEDTAVYYCARQLWGYYALDIWGQGTLVTVSS VL: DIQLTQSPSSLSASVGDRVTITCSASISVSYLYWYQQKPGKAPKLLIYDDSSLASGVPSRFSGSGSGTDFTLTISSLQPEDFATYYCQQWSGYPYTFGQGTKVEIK , report kon.
Result: 2.09e+06 M⁻¹ s⁻¹

Values from patent US20240209076A1
